Structures can show the parent of a compound that is named as a salt.
Assignment: determine reported melting point for the given compounds.

Ask | Please report the recorded melting point for CCCCCCCCCCCC1=C(OC(=O)c2ccccc2)C(=O)C=C(OC(=O)c2ccccc2)C1=O (as salt: Na) [Structure #15] .
Reply | 98.2 to 99.6 °C

Ask | Please report the recorded melting point for CCCCCCCCCCCC1=C(OC(=O)c2ccccc2I)C(=O)C=C(OC(=O)c2ccccc2I)C1=O (as salt: Na) [Structure #19] .
Reply | 64.2 to 67.6 °C

Ask | Please report the recorded melting point for CCCCCCCCCCCC1=C(OC(=O)c2cccc(Cl)c2)C(=O)C=C(OC(=O)c2cccc(Cl)c2)C1=O (as salt: Na) [Structure #7] .
Reply | 102.8 to 104.6 °C

Ask | Please report the recorded melting point for CCCCCCCCCCCC1=C(OC(=O)c2cccc(OC)c2)C(=O)C=C(OC(=O)c2cccc(OC)c2)C1=O (as salt: Na) [Structure #17] .
Reply | 77.1 to 78.6 °C

Ask | Please report the recorded melting point for CCCCCCCCCCCC1=C(OC(=O)c2ccc(Cl)cc2)C(=O)C=C(OC(=O)c2ccc(Cl)cc2)C1=O (as salt: Na) [Structure #9] .
Reply | 110.2 to 112 °C

Ask | Please report the recorded melting point for CCCCCCCCCCCC1=C(OC(=O)c2ccc(C)cc2)C(=O)C=C(OC(=O)c2ccc(C)cc2)C1=O (as salt: Na) [Structure #12] .
Reply | 94.8 to 96 °C

Ask | Please report the recorded melting point for CCCCCCCCCCCC1=C(OC(=O)c2ccccc2[N+](=O)[O-])C(=O)C=C(OC(=O)c2ccccc2[N+](=O)[O-])C1=O (as salt: Na) [Structure #14] .
Reply | 72.2 to 73.8 °C

Ask | Please report the recorded melting point for CCCCCCCCCCCC1=C(OC(=O)c2ccc(OC)cc2)C(=O)C=C(OC(=O)c2ccc(OC)cc2)C1=O (as salt: Na) [Structure #18] .
Reply | 99.2 to 100.5 °C

Ask | Please report the recorded melting point for CCCCCCCCCCCC1=C(OC(=O)c2cccc(C)c2)C(=O)C=C(OC(=O)c2cccc(C)c2)C1=O (as salt: Na) [Structure #13] .
Reply | 80.4 to 81.7 °C

Ask | Please report the recorded melting point for CCCCCCCCCCCC1=C(OC(=O)c2ccccc2F)C(=O)C=C(OC(=O)c2ccccc2F)C1=O [Structure #4] .
Reply | 66.2 to 68 °C

Ask | Please report the recorded melting point for CCCCCCCCCCCC1=C(OC(=O)c2cccc(F)c2)C(=O)C=C(OC(=O)c2cccc(F)c2)C1=O [Structure #2] .
Reply | 73.2 to 75.6 °C

Ask | Please report the recorded melting point for CCCCCCCCCCCC1=C(OC(=O)c2ccccc2Cl)C(=O)C=C(OC(=O)c2ccccc2Cl)C1=O (as salt: Na) [Structure #8] .
Reply | 56.2 to 57.8 °C

Ask | Please report the recorded melting point for CCCCCCCCCCCC1=C(OC(=O)c2cccc([N+](=O)[O-])c2)C(=O)C=C(OC(=O)c2cccc([N+](=O)[O-])c2)C1=O [Structure #11] .
Reply | 112.6 to 114.4 °C

###

Assignment: determine reported inhibition at 100 µM for the given molecules.
Molecular target: Pancreatic Lipase (Sus scrofa)
Construct: purchased Sigma L-3126
Sequence (P00591 whole entry): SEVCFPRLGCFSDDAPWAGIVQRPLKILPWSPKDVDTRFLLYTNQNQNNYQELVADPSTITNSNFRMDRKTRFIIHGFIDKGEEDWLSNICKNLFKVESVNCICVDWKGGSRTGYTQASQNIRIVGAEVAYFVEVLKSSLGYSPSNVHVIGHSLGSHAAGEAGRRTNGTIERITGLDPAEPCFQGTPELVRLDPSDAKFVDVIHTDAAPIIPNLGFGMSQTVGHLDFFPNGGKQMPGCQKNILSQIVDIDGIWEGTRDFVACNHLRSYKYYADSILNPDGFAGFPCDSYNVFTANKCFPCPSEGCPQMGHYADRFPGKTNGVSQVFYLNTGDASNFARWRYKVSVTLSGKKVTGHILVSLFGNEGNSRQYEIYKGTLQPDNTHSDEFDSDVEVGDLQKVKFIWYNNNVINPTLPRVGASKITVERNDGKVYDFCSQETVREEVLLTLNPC
Experiment: Pancreatic lipase inhibition assay (p-nitro phenol palmitate substrate, 96-well)
Type: biochemical
Conditions: pancreatic lipase, compound 100 μM, 37° C., OD 405 nm
Protocol: Preparation of test samples: Structures #2-#19 were dissolved in 1 mL DMSO to obtain a 10 mM stock solution, and were vortexed to dissolution and stored at 4° C. The various concentration of working samples were prepared in 0.2 M phosphate buffer, pH-8.0. […] Lipase assay: Lipase assay was performed by method described by Winkler and Stuckmann, 1979, with modification. […] The reaction mixture was incubated at 37° C. and optical density was measured at 405 nm after incubation. […]
Answer format: numeric, % implied, no suffix.

Ask | Please report the recorded inhibition at 100 µM for "CCCCCCCCCCCC1=C(OC(=O)c2ccc(OC)cc2)C(=O)C=C(OC(=O)c2ccc(OC)cc2)C1=O" .
Reply | 55.6

Ask | Please report the recorded inhibition at 100 µM for "CCCCCCCCCCCC1=C(OC(=O)c2ccc(C)cc2)C(=O)C=C(OC(=O)c2ccc(C)cc2)C1=O" .
Reply | 88.5

Ask | Please report the recorded inhibition at 100 µM for "CCCCCCCCCCCC1=C(OC(=O)c2cccc([N+](=O)[O-])c2)C(=O)C=C(OC(=O)c2cccc([N+](=O)[O-])c2)C1=O" .
Reply | 97.4

Ask | Please report the recorded inhibition at 100 µM for "CCCCCCCCCCCC1=C(OC(=O)c2cccc(OC)c2)C(=O)C=C(OC(=O)c2cccc(OC)c2)C1=O" .
Reply | 78.3

Ask | Please report the recorded inhibition at 100 µM for "CCCCCCCCCCCC1=C(OC(=O)c2cccc(C)c2)C(=O)C=C(OC(=O)c2cccc(C)c2)C1=O" .
Reply | 100

Ask | Please report the recorded inhibition at 100 µM for "CCCCCCCCCCCC1=C(OC(=O)c2ccc(C(C)(C)C)cc2)C(=O)C=C(OC(=O)c2ccc(C(C)(C)C)cc2)C1=O" .
Reply | 99.5

Ask | Please report the recorded inhibition at 100 µM for "CCCCCCCCCCCC1=C(OC(=O)c2ccccc2)C(=O)C=C(OC(=O)c2ccccc2)C1=O" .
Reply | 100
